TARGET DESC: PD-1/PD-L1 protein/protein interaction (Homo sapiens, UniProt Q9NZQ7)
Construct: Recombinant human PD-L1 protein (19-238) with a His-tag at the C-terminus; PD1-H5257 (PD-1-Fc)
Sequence (Q9NZQ7 19-238): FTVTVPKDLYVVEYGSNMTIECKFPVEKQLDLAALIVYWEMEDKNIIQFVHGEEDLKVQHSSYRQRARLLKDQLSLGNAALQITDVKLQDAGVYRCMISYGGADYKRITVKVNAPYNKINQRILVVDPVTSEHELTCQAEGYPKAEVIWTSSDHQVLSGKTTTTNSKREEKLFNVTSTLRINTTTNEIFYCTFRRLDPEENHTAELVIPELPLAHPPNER
EXPERIMENT SUMMARY: PD-1/PD-L1 Homogeneous Time-Resolved Fluorescence (HTRF) Binding Assay
EXPERIMENTAL CONDITIONS: recombinant human PD-L1 (19-238) His-tag and human PD-1 (25-167) Fc tag; 25° C., PBS pH 7.4
pIC50: −log10 of the molar value.
ASSAY ENDPOINT: pIC50

Record excerpt, results attached:
Cc1cc(CN2CCCC[C@H]2C(=O)O)cnc1C(=O)Nc1cccc(-c2ccccc2)c1C	6.00 to 7.00
COc1cc(C(=O)Nc2cccc(-c3ccccc3)c2C)ncc1CNCCO	≥ 8.00
N#Cc1c(NC(=O)c2ccc(CNCCO)cn2)cccc1C1=CCCCC1	≥ 8.00
Cc1cnc(C(=O)Nc2cccc(-c3ccccc3)c2C)cc1CNCCO	7.00 to 8.00
Cc1cc(CNCCO)cnc1C(=O)Nc1cccc(-c2ccccc2)c1C	7.00 to 8.00

Sure, the documented pIC50 for N#Cc1c(NC(=O)c2ccc(CNCCO)cn2)cccc1C1CCCCC1 is 7.00 to 8.00

Sure, the documented pIC50 for Cn1cc2ccc(-c3cccc(NC(=O)c4ccc(CNCCO)cn4)c3C#N)cc2n1 is 7.00 to 8.00
